Test: Induction of catalepsy in rats
Parameters: species or system male Wistar rats
Conditions: rat, in vivo, sc
Structures can show the parent of a compound that is named as a salt.
Attribute: ED50 at 0.5 h
readoutName: ED50 at 0.5 h

# compound, readoutName, result
records = [
    ("O=C(CCCN1CCC(O)(c2ccc(Cl)cc2)CC1)c1ccc(F)cc1 [Haloperidol, haloperidol, reference compound]", "ED50 at 0.5 h", "0.156 mg/kg"),
    ("O=C(CC1CCN(CCOc2cccc3c2OCCO3)C1)c1ccc(F)cc1 (single isomer, unassigned) [Example 5]", "ED50 at 0.5 h", "> 40 mg/kg"),
    ("O=C(CC1CCN(CCOc2cccc3c2OCCO3)C1)c1ccc(F)cc1 (stereo not drawn) [Example 2, hydrochloride]", "ED50 at 0.5 h", "> 40 mg/kg"),
]
